measurement_target: Kynurenine 3-monooxygenase (Rattus norvegicus)
Sequence (O88867 whole entry): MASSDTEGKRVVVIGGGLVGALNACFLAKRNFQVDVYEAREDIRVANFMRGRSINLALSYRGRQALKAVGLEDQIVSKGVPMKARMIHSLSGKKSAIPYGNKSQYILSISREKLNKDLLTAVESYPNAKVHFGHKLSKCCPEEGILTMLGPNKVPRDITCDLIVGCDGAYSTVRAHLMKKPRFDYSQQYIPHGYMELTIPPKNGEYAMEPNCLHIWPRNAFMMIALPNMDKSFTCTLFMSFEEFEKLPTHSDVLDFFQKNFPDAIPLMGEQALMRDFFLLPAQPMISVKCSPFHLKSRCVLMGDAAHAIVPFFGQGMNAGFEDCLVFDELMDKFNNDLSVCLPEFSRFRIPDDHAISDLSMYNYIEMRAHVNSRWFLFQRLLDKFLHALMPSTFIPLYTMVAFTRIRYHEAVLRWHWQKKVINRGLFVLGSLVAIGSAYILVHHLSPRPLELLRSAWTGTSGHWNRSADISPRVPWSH
experimental_protocol: Inhibition of kynurenine-3-hydroxylase in rat liver homogenates assessed as effect on production of 3-hydroxy kynurenine incubated for 1 hr by HPLC
endpoint_name: pIC50
The quantity pIC50 is defined as the negative base-10 logarithm of the molar concentration.

INPUT: What pIC50 appears in the records for this compound with Kynurenine 3-monooxygenase (Rattus norvegicus)? CC(=O)NCCCO[C@@H](CN)c1cc(Br)c(OS(=O)(=O)O)c(Br)c1 [IANTHELLAMIDE A]
OUTPUT: 5.82
